tested on: MT-2; assay: MTT assay, MT-2 cells; assay type: cell-based, human; conditions: 96 h exposure, leukemic cells
measured.quantity: IC50

INSERT INTO results (compound, measured_quantity, result) VALUES
  ('Cc1cc(C)nc(SCC(=O)Nc2ncc(Cc3cccc4ccccc34)s2)n1 [SirReal2, reference compound]', 'IC50', '17.9 µM');

====

test system: HeLa; experiment: MTT assay, HeLa cells; format: cell-based, human; conditions: Homo sapiens, HeLa, 96 h exposure, cervical cancer
measured.quantity: IC50 (µM)

INSERT INTO measurements (molecule, result) VALUES
  ('CCN(CC)c1ccnc(CN[C@@H](CSC(c2ccccc2)(c2ccccc2)c2ccccc2)C(=O)OC)c1', 2.72),
  ('CN(C)c1ccnc(CN[C@H](CSC(c2ccccc2)(c2ccccc2)c2ccccc2)C(=O)NN)c1', 7.95),
  ('COC(=O)[C@H](CSC(c1ccccc1)(c1ccccc1)c1ccccc1)NCc1cc(N(C)C)ccn1', 1.56),
  ('CCN(CC)c1ccnc(CN[C@H](Cc2cn(C(c3ccccc3)(c3ccccc3)c3ccccc3)cn2)C(=O)OC)c1 [TH-3, reference compound]', 0.37);
